target: T1, cynomolgus CD3 on HSC-F cells (cynomolgus, UniProt Q95LI5 22-198); test: flow cytometry, yeast-produced IgG 100 nM on HSC-F cells, pH 6.0
T1 construct: whole, on cells; also called Cyno HSC-F; cynomolgus HSC-F cells
T1 sequence (Q95LI5 22-198): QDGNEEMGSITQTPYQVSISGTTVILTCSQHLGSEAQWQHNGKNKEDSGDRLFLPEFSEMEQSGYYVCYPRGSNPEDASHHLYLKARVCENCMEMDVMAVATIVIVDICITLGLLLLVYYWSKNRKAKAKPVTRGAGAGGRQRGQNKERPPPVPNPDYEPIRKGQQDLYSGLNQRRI
Entries and their measured NCB follow.
observation type: NCB

[[record]]
binder = "ADI-79842 (Antibody No. 7), human IgG1 (antibody, V domains shown, Tested as yeast-produced aglycosylated human IgG1) VH: QVQLVQSGAEVKKPGASVKVSCKASGFNIKDYYMHWVRQAPGQRLEWMGWIDLENANTIYDAKFQGRVTITRDTSASTAYMELSSLRSEDTAVYYCARDHYGRYFYDVWGQGTLVTVSS VL: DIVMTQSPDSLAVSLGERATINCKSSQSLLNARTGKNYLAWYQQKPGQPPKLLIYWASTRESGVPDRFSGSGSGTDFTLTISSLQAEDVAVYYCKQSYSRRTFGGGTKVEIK"
observation_type = "NCB"
endpoint_value = 575

[[record]]
binder = "ADI-79843 (Antibody No. 8), human IgG1 (antibody, V domains shown, Tested as yeast-produced aglycosylated human IgG1) VH: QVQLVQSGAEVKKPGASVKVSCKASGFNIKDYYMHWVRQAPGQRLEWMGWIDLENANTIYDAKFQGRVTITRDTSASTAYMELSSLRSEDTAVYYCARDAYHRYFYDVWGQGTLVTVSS VL: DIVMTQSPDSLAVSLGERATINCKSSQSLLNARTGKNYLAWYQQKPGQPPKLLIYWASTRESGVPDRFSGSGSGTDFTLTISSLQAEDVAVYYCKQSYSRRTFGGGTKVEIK"
observation_type = "NCB"
endpoint_value = 603

[[record]]
binder = "ADI-74966 (Antibody No. 4), human IgG1 (antibody, V domains shown, Tested as human IgG1 (yeast-produced aglycosylated, or CHO-produced)) VH: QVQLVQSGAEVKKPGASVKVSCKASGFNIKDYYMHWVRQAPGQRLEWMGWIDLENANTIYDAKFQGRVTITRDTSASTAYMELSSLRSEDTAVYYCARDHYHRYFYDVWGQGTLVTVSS VL: DIVMTQSPDSLAVSLGERATINCKSSQSLLNARTGHNYLAWYQQKPGQPPKLLIYWASTRESGVPDRFSGSGSGTDFTLTISSLQAEDVAVYYCKQSYSHRTFGGGTKVEIK"
observation_type = "NCB"
endpoint_value = 378

[[record]]
binder = "ADI-74967 (Antibody No. 5), human IgG1 (antibody, V domains shown, Tested as human IgG1 (yeast-produced aglycosylated, or CHO-produced)) VH: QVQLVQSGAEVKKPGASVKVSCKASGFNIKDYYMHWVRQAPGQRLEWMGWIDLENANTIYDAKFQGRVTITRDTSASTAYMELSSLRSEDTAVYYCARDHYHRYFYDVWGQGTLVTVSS VL: GIVMTQSPDSLAVSLGERATINCKSSQSLLNARTGKNYLAWYQQKPGQPPKLLIYWASTRESGVPDRFSGSGSGTDFTLTISSLQAEDVAVYYCKQSHSHRTFGGGTKVEIK"
observation_type = "NCB"
endpoint_value = 512

[[record]]
binder = "ADI-79845 (Antibody No. 11), human IgG1 (antibody, V domains shown, Tested as yeast-produced aglycosylated human IgG1) VH: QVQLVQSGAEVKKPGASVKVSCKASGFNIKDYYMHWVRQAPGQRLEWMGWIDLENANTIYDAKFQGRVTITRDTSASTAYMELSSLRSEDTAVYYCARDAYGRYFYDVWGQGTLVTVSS VL: DIVMTQSPDSLAVSLGERATINCKSSQSLLNARTGKNYLAWYQQKPGQPPKLLIYWASTRESGVPDRFSGSGSGTDFTLTISSLQAEDVAVYYCKQSYSHRTFGGGTKVEIK"
observation_type = "NCB"
endpoint_value = 581

